B1: RIPK4 (parent)
chain: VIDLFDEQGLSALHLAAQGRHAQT

- Variants of: B1
- procedure.text: protein stability index of a GFP-peptide fusion (GPS, HEK-293T) (PSI 1-6); higher = more stable;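 further: lentivirally expressed fusions sorted by FACS into six bins by GFP to DsRed ratio, PSI derived from sequencing read proportions per bin multiplied by bin number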
- condition.notes: c terminus: a fixed tail appended
Criterion: protein stability index meeting or surpassing 3. Met: Fulfilled. Not met: Not fulfilled.

Here are 10 variants together with their reported answers.
VIDLFDEQGLSALHLRAQGRHAQT [A16R] :: Not fulfilled
VIDLFDQQGLSALHLAAQGRHAQT [E7Q] :: Not fulfilled
VIDLFDERGLSALHLAAQGRHAQT [Q8R] :: Not fulfilled
DIDLFDEQGLSALHLAAQGRHAQT [V1D] :: Fulfilled
VIDLFDEQGLSALHLAAVGRHAQT [Q18V] :: Not fulfilled
VIDLFDEQGLSALHLAAQGRHAQV [T24V] :: Not fulfilled
VIDLFDEQGLSALHPAAQGRHAQT [L15P] :: Fulfilled
VIDLFDEQGLSALHLAAQGRHAGT [Q23G] :: Not fulfilled
VIDLFKEQGLSALHLAAQGRHAQT [D6K] :: Not fulfilled
VIDDFDEQGLSALHLAAQGRHAQT [L4D] :: Fulfilled

# bool: protein stability index of VIDLFDDQGLSALHLAAQGRHAQT [E7D] >= 3
Not fulfilled

# bool: protein stability index of VIDLFDEQGLSALHLAAQGRMAQT [H21M] >= 3
Not fulfilled

# bool: protein stability index of VIDLFDEQGLSALHQAAQGRHAQT [L15Q] >= 3
Fulfilled

# bool: protein stability index of VMDLFDEQGLSALHLAAQGRHAQT [I2M] >= 3
Fulfilled

# bool: protein stability index of VIDLFDGQGLSALHLAAQGRHAQT [E7G] >= 3
Not fulfilled

# bool: protein stability index of VIDLFDEQGLSALHLAAYGRHAQT [Q18Y] >= 3
Not fulfilled

# bool: protein stability index of VIDLFDRQGLSALHLAAQGRHAQT [E7R] >= 3
Not fulfilled

# bool: protein stability index of VIDCFDEQGLSALHLAAQGRHAQT [L4C] >= 3
Not fulfilled

# bool: protein stability index of VIDLFDEQGLSALHLAAQGRHCQT [A22C] >= 3
Not fulfilled

# bool: protein stability index of VIDLFDNQGLSALHLAAQGRHAQT [E7N] >= 3
Not fulfilled

# bool: protein stability index of VIDLFDEQGDSALHLAAQGRHAQT [L10D] >= 3
Fulfilled

# bool: protein stability index of VIDLFDEQGLSALHLHAQGRHAQT [A16H] >= 3
Not fulfilled

# bool: protein stability index of VIDLFDEQGLLALHLAAQGRHAQT [S11L] >= 3
Not fulfilled

# bool: protein stability index of VIDLFDEQGLSALHLGAQGRHAQT [A16G] >= 3
Fulfilled

# bool: protein stability index of VIDLWDEQGLSALHLAAQGRHAQT [F5W] >= 3
Not fulfilled

# bool: protein stability index of VIDLFEEQGLSALHLAAQGRHAQT [D6E] >= 3
Not fulfilled

# bool: protein stability index of TIDLFDEQGLSALHLAAQGRHAQT [V1T] >= 3
Fulfilled

# bool: protein stability index of VIDVFDEQGLSALHLAAQGRHAQT [L4V] >= 3
Fulfilled
